Data provenance: patent US12516022B2

// reported starting material (prodrug compound) per item
- Test: Time course of conversion to indirubin in FaSSIF at 37° C.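 Further: test compound, about 1-3 mg in 5 mL FaSSIF, sampled and analysed by UPLC-MS with PDA UV (210-400 nm), QDa mass and evaporative light scattering detection.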
- Type: physicochemical
- Test settings: FaSSIF 37° C. 24 h
Answer with a number only, understood to be in %.

Worked examples follow.
Molecule | Units text | starting material (prodrug compound)
O=C1/C(=C2/C(=O)N(C(=O)NC3CCOCC3)c3ccccc32)Nc2ccccc21 [drawing 263] | % | 55
O=C1/C(=C2/C(=O)N(CN3CCOCC3)c3ccccc32)Nc2ccccc21 [drawing 261] | % | 46
O=C1/C(=C2/C(=O)N(CN3CCCC3)c3ccccc32)Nc2ccccc21 [drawing 255] | % | 0
CC(=O)N1CCN(CN2C(=O)/C(=C3\Nc4ccccc4C3=O)c3ccccc32)CC1 [drawing 258] | % | 10
CN1CCN(CN2C(=O)/C(=C3\Nc4ccccc4C3=O)c3ccccc32)CC1 [drawing 265] | % | 53
O=C1/C(=C2/C(=O)N(CN3CCC(F)(F)CC3)c3ccccc32)Nc2ccccc21 [drawing 260] | % | 52

Inquiry: Endpoint output: starting material (prodrug compound) of CN(C)CCN(CCN(C)C)CN1C(=O)/C(=C2\Nc3ccccc3C2=O)c2ccccc21 [drawing 257] . Value?
Reply text: 0

Inquiry: Entry CNCCNC(=O)N1C(=O)/C(=C2\Nc3ccccc3C2=O)c2ccccc21.Cl [drawing 264] : reported starting material (prodrug compound) = ?
Reply text: 100
